assayed.target: Human 11βHSD1 (Homo sapiens, UniProt P28845)
Construct: the enzyme source, native hepatic enzyme compared to recombinant enzyme; tissue XenoTech H0610/Lot 0210078; host or cells: human hepatic microsomes
Sequence (P28845 whole entry): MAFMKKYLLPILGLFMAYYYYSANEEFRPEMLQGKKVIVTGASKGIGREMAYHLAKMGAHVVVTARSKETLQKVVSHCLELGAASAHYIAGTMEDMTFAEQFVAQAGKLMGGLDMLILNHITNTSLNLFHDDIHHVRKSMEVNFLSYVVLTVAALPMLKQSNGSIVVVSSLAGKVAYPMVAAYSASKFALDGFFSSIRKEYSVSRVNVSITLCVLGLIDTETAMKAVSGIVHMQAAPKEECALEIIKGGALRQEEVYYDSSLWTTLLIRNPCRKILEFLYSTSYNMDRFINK
assay.notes: 11β HSD1 cortisol radioimmunoassay (RIA) with human hepatic microsomes
Assay type: biochemical
conditions.used: read-out: % inhibition of Human 11βHSD1 @ 10 μM
Listing of recorded inhibition at 10 µM by entry.
observed.property: inhibition at 10 µM

{"columns": ["smiles.repr", "reading"],
 "data": [
  ["COc1ccc2nc(C)sc2c1NS(=O)(=O)c1cccc(Cl)c1C", "45%"],
  ["Cc1nc2cc(N(C)S(=O)(=O)c3cccc(Cl)c3C)ccc2s1", "66%"],
  ["Cc1nc2cc(CNS(=O)(=O)c3cccc(Cl)c3C)ccc2s1", "78%"],
  ["Cc1nc2cc(NS(=O)(=O)c3cccc4ccccc34)ccc2s1", "48%"],
  ["CC(=O)c1ccccc1S(=O)(=O)Nc1ccc2sc(C)nc2c1", "41%"],
  ["COc1ccc(Cl)cc1S(=O)(=O)Nc1ccc2sc(C)nc2c1", "34%"],
  ["Cc1nc2cc(NS(=O)(=O)c3cc(Cl)ccc3Cl)ccc2s1", "30%"],
  ["CCN1CCc2cc(NS(=O)(=O)c3cccc(Cl)c3C)ccc21", "62%"],
  ["Cc1nc2c(Cl)c(NS(=O)(=O)c3cccc(Cl)c3C)c(Cl)cc2s1", "60%"]
]}

###

assayed.target: Human 11βHSD1 (Homo sapiens)
Construct: the enzyme source, native hepatic enzyme compared to recombinant enzyme; tissue XenoTech H0610/Lot 0210078; host or cells: human hepatic microsomes
assay.notes: 11β HSD1 cortisol radioimmunoassay (RIA) with human hepatic microsomes
Format: biochemical
conditions.used: read-out: % inhibition of Human 11βHSD1 @ 10 μM
Protocol: Biological Assay Development Using Human 11β-Hydroxysteroid Dehydrogenase Type 1. Standard Operating Procedure for the 11β-Hydroxysteroid Dehydrogenase Type 1 Cortisol Radioimmunoassay. 11β HSD1 Cortisol RIA Enzyme assay buffer: 30 mM Tris-HCL, pH 7.2 containing 1 mM EDTA Antibody binding buffer: 50 mM Tris-HCL, pH 8, containing 0.1 M NaCl and 0.1% gelatin Dilute into assay buffer 1 in 25. Also dilute neat DMSO 1 in 25 into assay buffer for controls. Dilute this 1 in 50 into assay buffer. […]
Classify by measured inhibition at 10 µM: 1 if it is equal to or exceeds 50%, 0 if it is smaller.

{"columns": ["compound", "group"],
 "data": [
  ["Cc1nc2cc(NS(=O)(=O)c3cccc(Cl)c3C)ccc2s1 [compound 413]", 0],
  ["Cc1nc2cc(NS(=O)(=O)c3ccc(Br)cc3)ccc2s1 [compound 519]", 0],
  ["Cc1nc2cc(NS(=O)(=O)c3ccc4c(c3)CN(C(=O)C(F)(F)F)CC4)ccc2s1 [compound 581]", 0],
  ["Cc1nc2cc(CN(Cc3ccc4sc(C)nc4c3)S(=O)(=O)c3cccc(Cl)c3C)ccc2s1 [compound 1030]", 1],
  ["COc1c(C)c(C)c(S(=O)(=O)Nc2ccc3sc(C)nc3c2)c(C)c1C [compound 708]", 0],
  ["Cc1nc2cc(NS(=O)(=O)c3cccc4cccnc34)ccc2s1 [compound 552]", 0],
  ["COC(=O)c1ccccc1S(=O)(=O)Nc1ccc2sc(C)nc2c1 [compound 705]", 0],
  ["Cc1nc2cc(NS(=O)(=O)c3ccc(Br)cc3C)ccc2s1 [compound 523]", 1]
]}

###

assayed.target: Human 11βHSD1 (Homo sapiens)
Construct: the enzyme source, native hepatic enzyme compared to recombinant enzyme; tissue XenoTech H0610/Lot 0210078; host or cells: human hepatic microsomes
assay.notes: 11β HSD1 cortisol radioimmunoassay (RIA) with human hepatic microsomes
Type: biochemical
conditions.used: read-out: % inhibition of Human 11βHSD1 @ 10 μM
This section presents compounds with their documented inhibition at 10 µM values.

{"columns": ["smiles.repr", "assayed.target", "units.symbol", "inhibition at 10 µM"],
 "data": [
  ["CCSc1nc2ccc(NS(=O)(=O)c3cccc(Cl)c3C)cc2s1", "Human 11βHSD1 (Homo sapiens)", "%", 22],
  ["Cc1nc2cc(NS(=O)(=O)c3cccc(Cl)c3C)ccc2[nH]1", "Human 11βHSD1 (Homo sapiens)", "%", 61],
  ["CCCc1ccc(S(=O)(=O)Nc2ccc3[nH]c(C)c(C)c3c2)cc1", "Human 11βHSD1 (Homo sapiens)", "%", 64],
  ["Cc1nc2cc(C)c(N(S(=O)(=O)c3cccc(Cl)c3C)S(=O)(=O)c3cccc(Cl)c3C)cc2s1", "Human 11βHSD1 (Homo sapiens)", "%", 51]
]}

###

assayed.target: 11 β-HSD type 2 (Rattus norvegicus, UniProt P50233)
Construct: Both the kidneys and livers were homogenised on ice in PBS-sucrose buffer; tissue Harlan Olac (rats); host or cells: Wistar rat kidney homogenate supernatant
Sequence (P50233 1-400): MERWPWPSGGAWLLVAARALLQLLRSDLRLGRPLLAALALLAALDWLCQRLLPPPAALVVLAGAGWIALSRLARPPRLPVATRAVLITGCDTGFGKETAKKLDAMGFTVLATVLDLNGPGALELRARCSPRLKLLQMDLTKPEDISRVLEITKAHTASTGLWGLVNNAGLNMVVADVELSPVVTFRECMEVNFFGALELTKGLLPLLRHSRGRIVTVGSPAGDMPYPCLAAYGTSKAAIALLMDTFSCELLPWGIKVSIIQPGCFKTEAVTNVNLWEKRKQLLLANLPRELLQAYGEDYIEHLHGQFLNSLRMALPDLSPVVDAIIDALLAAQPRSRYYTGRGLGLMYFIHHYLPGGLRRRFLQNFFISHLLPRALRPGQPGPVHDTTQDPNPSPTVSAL
assay.notes: 11 β-HSD type 2 inhibition, rat kidney homogenate, conversion F to E (radiometric TLC)
Assay type: biochemical
conditions.used: read-out: % inhibition of 11β HSD2 @ 10 μM, typical sd ± 5%, means n=2
observed.property: inhibition at 10 µM

{"columns": ["molecule", "reading"],
 "data": [
  ["Cc1nc2cc(NS(=O)(=O)c3c(C)c(C)c4c(c3C)CCC(C)(C)O4)ccc2s1 [compound 713]", "3%"],
  ["Cc1nc2cc(NS(=O)(=O)c3c(F)c(F)c(F)c(F)c3F)ccc2s1 [compound 712]", "3%"],
  ["CCCc1ccc(S(=O)(=O)Nc2ccc3sc(C)nc3c2)cc1 [compound 421]", "0.9%"],
  ["Cc1nc2cc(NS(=O)(=O)c3cccc4cccnc34)ccc2s1 [compound 552]", "24%"]
]}

###

assayed.target: Human 11βHSD1 (Homo sapiens)
Construct: the enzyme source, native hepatic enzyme compared to recombinant enzyme; tissue XenoTech H0610/Lot 0210078; host or cells: human hepatic microsomes
assay.notes: 11β HSD1 cortisol radioimmunoassay (RIA) with human hepatic microsomes
Assay type: biochemical
conditions.used: read-out: % inhibition of Human 11βHSD1 @ 10 μM
Would you please tag the item t when its inhibition at 10 µM is 70% or above, and f when it is below?

{"columns": ["smiles.repr", "group"],
 "data": [
  ["Cc1nc2cc(C)c(NS(=O)(=O)c3cccc(Cl)c3C)cc2s1", "f"],
  ["Cc1nc2cc(C)c(NS(=O)(=O)c3cc(Cl)ccc3Cl)cc2s1", "f"],
  ["Cc1[nH]c2ccc(NS(=O)(=O)c3cccc(Cl)c3C)cc2c1C", "f"],
  ["CCCc1ccc(S(=O)(=O)Nc2ccc3sc(C)nc3c2Cl)cc1", "t"],
  ["Cc1c(Cl)cccc1S(=O)(=O)Nc1ccc2nc(C)n(C)c2c1", "f"]
]}

###

assayed.target: 11 β-HSD type 1 (Rattus norvegicus)
Construct: Both the kidneys and livers were homogenised on ice in PBS-sucrose buffer; tissue Harlan Olac (rats); host or cells: Wistar rat liver homogenate supernatant
Sequence (P16232 whole entry): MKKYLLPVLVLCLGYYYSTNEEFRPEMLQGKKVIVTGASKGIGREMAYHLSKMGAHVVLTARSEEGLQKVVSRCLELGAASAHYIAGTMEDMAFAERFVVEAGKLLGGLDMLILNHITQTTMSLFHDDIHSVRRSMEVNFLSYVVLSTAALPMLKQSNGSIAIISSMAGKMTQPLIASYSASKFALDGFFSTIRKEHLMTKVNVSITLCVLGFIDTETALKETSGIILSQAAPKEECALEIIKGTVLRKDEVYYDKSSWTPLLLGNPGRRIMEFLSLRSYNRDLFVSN
assay.notes: 11 β-HSD type 1 inhibition, rat liver homogenate, conversion E to F (radiometric TLC)
Type: biochemical
conditions.used: read-out: % inhibition of 11β HSD1 @ 10 μM, 10 μM, typical sd ± 5%, means n=2
Tag: T if measured inhibition at 10 µM is not below 30%, F if it is.

{"columns": ["smiles.repr", "group"],
 "data": [
  ["COc1ccc(S(=O)(=O)Nc2ccc3sc(C)nc3c2)cc1", "F"],
  ["Cc1c(Cl)cccc1S(=O)(=O)Nc1ccc2[nH]c(=O)sc2c1", "F"],
  ["Cc1nc2cc(NS(=O)(=O)c3c(C(C)C)cc(C(C)C)cc3C(C)C)ccc2s1", "T"],
  ["Cc1nc2cc(NS(=O)(=O)c3ccc(Cl)cc3Cl)ccc2s1", "F"],
  ["Cc1nc2cc(NS(=O)(=O)c3cccc(Cl)c3C)ccc2s1", "T"],
  ["Cc1nc2cc(NS(=O)(=O)c3ccc4c(c3)CN(C(=O)C(F)(F)F)CC4)ccc2s1", "T"],
  ["Cc1nc2cc(NS(=O)(=O)c3c(C)c(C)c(C)c(C)c3C)ccc2s1", "T"],
  ["CC(=O)Nc1ccc(S(=O)(=O)Nc2ccc3sc(C)nc3c2)cc1", "T"],
  ["CC(=O)c1ccccc1S(=O)(=O)Nc1ccc2sc(C)nc2c1", "T"]
]}

Reference for the values: patent US7786152B2
